biological target: Her2 exon 20 YVMA insertion (A775_G776ins YVMA) (Homo sapiens, UniProt P04626, INS775YVMA); construct: expressed in transfected cells; host or cells: Ba/F3 (murine pro-B) cells transduced with lentivirus from pLVX-IRES puro; experiment: Ba/F3-Her2 Exon20 YVMA cell anti-proliferative assay (CellTiter 96 MTS, 72 h); assay type: cell-based; conditions: Ba/F3-Her2 Exon20 YVMA cells
Sequence (P04626 with tags, fused parts or gaps INS775YVMA): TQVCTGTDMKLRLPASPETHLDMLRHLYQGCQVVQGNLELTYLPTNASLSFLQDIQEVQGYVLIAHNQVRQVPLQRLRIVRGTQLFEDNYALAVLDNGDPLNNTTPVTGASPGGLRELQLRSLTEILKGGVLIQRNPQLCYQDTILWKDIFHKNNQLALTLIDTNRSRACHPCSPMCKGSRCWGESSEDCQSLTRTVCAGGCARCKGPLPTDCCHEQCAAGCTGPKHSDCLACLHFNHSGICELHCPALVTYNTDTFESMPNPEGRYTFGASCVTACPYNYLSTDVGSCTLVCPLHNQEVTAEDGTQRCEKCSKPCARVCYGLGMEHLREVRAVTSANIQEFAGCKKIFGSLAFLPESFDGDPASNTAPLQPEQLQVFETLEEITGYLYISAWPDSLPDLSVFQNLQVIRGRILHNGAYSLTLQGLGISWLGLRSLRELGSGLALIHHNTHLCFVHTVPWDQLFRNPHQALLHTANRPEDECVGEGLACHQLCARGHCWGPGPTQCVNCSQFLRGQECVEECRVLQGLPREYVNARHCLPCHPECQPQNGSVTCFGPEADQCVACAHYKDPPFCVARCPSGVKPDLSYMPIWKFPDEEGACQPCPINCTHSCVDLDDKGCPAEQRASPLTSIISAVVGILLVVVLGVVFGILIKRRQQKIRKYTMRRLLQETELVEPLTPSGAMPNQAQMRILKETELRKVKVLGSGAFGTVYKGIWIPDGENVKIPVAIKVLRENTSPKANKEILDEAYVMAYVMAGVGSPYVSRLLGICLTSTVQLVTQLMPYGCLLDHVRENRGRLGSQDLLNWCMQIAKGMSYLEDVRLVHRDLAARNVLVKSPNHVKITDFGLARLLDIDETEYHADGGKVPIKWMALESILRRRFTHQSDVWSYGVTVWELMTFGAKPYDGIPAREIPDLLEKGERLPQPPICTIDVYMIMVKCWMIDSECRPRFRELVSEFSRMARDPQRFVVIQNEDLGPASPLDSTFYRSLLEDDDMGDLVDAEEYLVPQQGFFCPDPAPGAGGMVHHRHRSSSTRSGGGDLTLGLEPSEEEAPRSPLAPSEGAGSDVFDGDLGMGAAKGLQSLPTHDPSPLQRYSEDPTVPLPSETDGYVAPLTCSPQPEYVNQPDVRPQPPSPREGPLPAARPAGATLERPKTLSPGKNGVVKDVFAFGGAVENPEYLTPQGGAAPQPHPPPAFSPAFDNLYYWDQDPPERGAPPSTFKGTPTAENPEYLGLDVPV
# IC50 annotations

C=CC(=O)Nc1cc(Nc2ncc(OCC(F)F)c(-c3cn4c5c(cccc35)CCC4)n2)c(OC)cc1N(C)CCN(C)C | 100 to 500 nM
C=CC(=O)Nc1cc(Nc2ncc(CCC(C)(C)O)c(-c3cn4c5c(cccc35)CCC4)n2)c(OC)cc1N(C)CCN(C)C | 100 to 500 nM
C=CC(=O)Nc1cc(Nc2ncc(/C=C\C#N)c(-c3cn4c5c(cccc35)CCC4)n2)c(OC)cc1N(C)CCN(C)C | < 100 nM
C=CC(=O)Nc1cc(Nc2ncc(C(=O)NC)c(-c3cn4c5c(cccc35)CCC4)n2)c(OC)cc1N(C)CCN(C)C | 100 to 500 nM
C=CC(=O)Nc1cc(Nc2nccc(-c3c(N4CCCC4=O)n4c5c(cccc35)CCC4)n2)c(OC)cc1N(C)CCN(C)C | 100 to 500 nM

Could you share which IC50 value was measured for C=CC(=O)Nc1cc(Nc2ncc(N(C)CCO)c(-c3cn4c5c(cccc35)CCC4)n2)c(OC)cc1N(C)CCN(C)C ?
100 to 500 nM

Input C=CC(=O)Nc1cc(Nc2ncc(-c3ncnn3C)c(-c3cn4c5c(cccc35)CCC4)n2)c(OC)cc1N(C)CCN(C)C
100 to 500 nM

Input C=CC(=O)Nc1cc(Nc2ncc(-c3cn(C)nc3C)c(-c3cn4c5c(cccc35)CCC4)n2)c(OC)cc1N(C)CCN(C)C
< 100 nM

Input C=CC(=O)Nc1cc(Nc2nccc(-c3c(-c4ncco4)n4c5c(cccc35)CCC4)n2)c(OC)cc1N(C)CCN(C)C
500 to 1000 nM

Input C=CC(=O)Nc1cc(Nc2ncc(Cl)c(-c3cn4c5c(cccc35)CCC4)n2)c(OC)cc1OCCN1CCCC1
500 to 1000 nM

Input C=CC(=O)Nc1cc(Nc2ncc(C#N)c(-c3cn4c5c(cccc35)CCC4)n2)c(OC)cc1N1CC[C@H](N(C)C)C1
100 to 500 nM

Input C=CC(=O)Nc1cc(Nc2ncc(C#N)c(-c3cn4c5c(cccc35)CCC4)n2)c(OC)cc1N(C)CCNC
< 100 nM

Input C=CC(=O)Nc1cc(Nc2ncc(Cl)c(-c3cn4c5c(cccc35)OCC4)n2)c(OC)cc1N(C)C1CCN(C)C1 (stereo not drawn)
500 to 1000 nM

Input C=CC(=O)Nc1cc(Nc2ncc(CC)c(-c3cn4c5c(cccc35)OCC4)n2)c(OC)cc1N(C)CCN(C)C
100 to 500 nM

Input C=CC(=O)Nc1cc(Nc2nccc(-c3c(N4CC[C@H](O)C4)n4c5c(cccc35)CCC4)n2)c(OC)cc1N(C)CCN(C)C
< 100 nM

Input C=CC(=O)Nc1cc(Nc2ncc(Cl)c(-c3cn4c5c(cccc35)OCC4)n2)c(OC)cc1O[C@@H](COCC)CN(C)C
100 to 500 nM

Input C=CC(=O)Nc1cc(Nc2ncc(N3CCCC3)c(-c3cn4c5c(cccc35)CCC4)n2)c(OC)cc1N(C)CCN(C)C
500 to 1000 nM

Input C=CC(=O)Nc1cc(Nc2ncc(Cl)c(-c3cn4c5c(cccc35)CCC4)n2)c(OC)cc1N(C)CCN1CCN(C)CC1
> 1000 nM
